experiment: Toxicity liver stage against HepG2, at 10uM
Format: cell-based
Parameters: test concentration 10 uM, cell line HepG2-A16-CD81EGFP
condition parameters: human, HepG2-A16-CD81EGFP cells; read-out: INHIBITION
Exercise: state measured cytotoxicity at 10 µM for each of the molecules provided.
Give bare numbers, in %.

See these solved cases before continuing.
molecule	cytotoxicity at 10 µM / %
CSc1ccccc1CN1CCn2nc(CNC(=O)N(C)C)cc2C1	19.5
Nc1ncccc1CN1CCOCC1CC(=O)NCc1ccccn1 (centres undefined)	9.66
CCCOC(C)C(=O)N1CCC(O)(c2ccc3nc(C)ccc3c2)CC1 (centres undefined)	1.12

For every record below, what is its cytotoxicity at 10 µM?
1. CN1CCN(c2ccc(C(=O)N3CCCC(c4ncc[nH]4)C3)cc2)CC1 (centres undefined)
2. COC(=O)c1cc2c(=O)n(C3CC3)ccc2nc1C
3. CNC(=O)C1CN(c2cc(C)ncn2)CCN1Cc1ccccc1 (centres undefined)

OUTPUT:
1. 4.15
2. -47
3. 10

# batch: return cytotoxicity at 10 µM for each of the 6 molecules below
1. Cc1csc(CN(CC2CCCO2)C(=O)c2ccc(C)nc2C)n1 (centres undefined)
2. O=C1C(Sc2nnnn2C2CC2)CCN1c1ccccc1Cl (centres undefined)
3. CO[C@H]1CCN(Cc2c(C)noc2C)[C@@H]2CN(Cc3ccncc3)C[C@H]12
4. Cc1ccc(CN2CCc3ncc(CNS(C)(=O)=O)n3CC2)o1
5. CN(C)[C@H]1CCN(c2nc(C(C)(C)C)nc3c2cnn3C)C1
6. CN(C)C(=O)Cn1c(C2CC2)c(CN2CCSCC2)c2cccnc21

OUTPUT:
1: -1.19; 2: 2.4; 3: 5.59; 4: -9.9; 5: -6.12; 6: 4.06
